Here, each record is paired with measured starting material (prodrug compound) data.
experiment: Time course of conversion to indirubin in FaSSIF at 37° C.;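 note: test compound, about 1-3 mg in 5 mL FaSSIF, sampled and analysed by UPLC-MS with PDA UV (210-400 nm), QDa mass and evaporative light scattering detection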; assay type: physicochemical; details: FaSSIF 37° C., 2 h
Report only the number, with the unit % understood.

Query: Param item = CN(C)CCN(CCN(C)C)CN1C(=O)/C(=C2\Nc3ccccc3C2=O)c2ccccc21 [drawing 257] ; retrieve measured starting material (prodrug compound).
Reply: 4

Query: Param item = O=C1/C(=C2/C(=O)N(C(=O)NC3CCOCC3)c3ccccc32)Nc2ccccc21 [drawing 263] ; retrieve measured starting material (prodrug compound).
Reply: 50

Query: Param item = O=C1/C(=C2/C(=O)N(COS(=O)(=O)O)c3ccccc32)Nc2ccccc21 [drawing 262] ; retrieve measured starting material (prodrug compound).
Reply: 0

Query: Param item = CN(C)CCN(C)CN1C(=O)/C(=C2\Nc3ccccc3C2=O)c2ccccc21 [drawing 253] ; retrieve measured starting material (prodrug compound).
Reply: 0

Query: Param item = CC(=O)N1CCN(CN2C(=O)/C(=C3\Nc4ccccc4C3=O)c3ccccc32)CC1 [drawing 258] ; retrieve measured starting material (prodrug compound).
Reply: 29
